Tested on: A. flavus MMX 5948
assay-overview: MIC/MEC assay (CLSI microdilution)
Assay type: cell-based
experimental-setup: Aspergillus flavus, MMX5948, 48 h, RPMI plus 0.002% Tween-80, read-out: MIC
Numbered stars: 1 amine (or outer) side, 2 acyl side, 3 side chain; on linkers, the order of the positions; unused ones are H or OH. Square brackets hold non-standard residues; d marks the D form. Peptide text beside a SMILES is read from it. X15 = CN([C@@H](Cc1cccc(-c2ccc(N3CCOCC3)nc2)c1)C(=O)[*:2])[*:1]; X24 = CN([C@@H](Cc1cccc(-c2ccnc(N3CCOCC3)c2)c1)C(=O)[*:2])[*:1]; X28 = CN([C@@H](Cc1cccc(-c2ccc(C(F)(F)F)cc2)c1)C(=O)[*:2])[*:1]; Hmp(2R,3S) = CC[C@H](C)[C@@H](O)C(=O)O; NMeVal(β-OH) = CN[C@H](C(=O)O)C(C)(C)O; NMeV = CN[C@H](C(=O)O)C(C)C
For each entry below, report its MIC value.

compound="CC[C@H](C)[C@@H]1NC(=O)[C@@H]2CCCN2C(=O)[C@H](Cc2cccc(-c3ccc(C(F)(F)F)cc3)c2)N(C)C(=O)[C@H](Cc2ccccc2)NC(=O)[C@H](C(C)C)N(C)C(=O)[C@@H]([C@@H](C)CC)OC(=O)[C@H](C(C)(C)O)N(C)C(=O)[C@H](CC(C)C)NC(=O)[C@H](C(C)C)N(C)C1=O [Compound 3] (cyclo(F[X28]PI[NMeV]L[NMeVal(β-OH)][Hmp(2R,3S)][NMeV]))" recorded_value="> 64 µg/mL"
compound="CC[C@H](C)[C@@H]1NC(=O)[C@@H]2CCCN2C(=O)[C@H](Cc2cccc(-c3ccc(N4CCOCC4)nc3)c2)N(C)C(=O)[C@H](Cc2ccccc2)NC(=O)[C@H](C(C)C)N(C)C(=O)[C@@H]([C@@H](C)CC)OC(=O)[C@H](C(C)(C)O)N(C)C(=O)[C@H](CC(C)C)NC(=O)[C@H](C(C)C)N(C)C1=O [Compound 24] (cyclo(F[X15]PI[NMeV]L[NMeVal(β-OH)][Hmp(2R,3S)][NMeV]))" recorded_value="0.5 µg/mL"

Case CC[C@H](C)[C@@H]1NC(=O)[C@@H]2CCCN2C(=O)[C@H](Cc2cccc(-c3ccnc(N4CCOCC4)c3)c2)N(C)C(=O)[C@H](Cc2ccccc2)NC(=O)[C@H](C(C)C)N(C)C(=O)[C@@H]([C@@H](C)CC)OC(=O)[C@H](C(C)(C)O)N(C)C(=O)[C@H](CC(C)C)NC(=O)[C@H](C(C)C)N(C)C1=O [Compound 21] (cyclo(F[X24]PI[NMeV]L[NMeVal(β-OH)][Hmp(2R,3S)][NMeV])) , A. flavus MMX 5948, MIC recorded as > 64 µg/mL

###

Please provide measured MIC for the entries that follow.
Tested on: C. albicans MMX 2000 ATCC 10231
assay-overview: MIC assay (CLSI microdilution)
Assay type: cell-based
experimental-setup: Candida albicans, ATCC10231, RPMI plus 0.002% Tween-80; read-out: MIC
Numbered stars: 1 amine (or outer) side, 2 acyl side, 3 side chain; on linkers, the order of the positions; unused ones are H or OH. Square brackets hold non-standard residues; d marks the D form. Peptide text beside a SMILES is read from it. X17 = CN([C@@H](Cc1cccc(-c2cnc3ccccc3c2)c1)C(=O)[*:2])[*:1]; X22 = CN([C@@H](Cc1cccc(-c2cncc3ccccc23)c1)C(=O)[*:2])[*:1]; X32 = CN([C@@H](Cc1cccc(-c2cccc(F)c2)c1)C(=O)[*:2])[*:1]; Hmp(2R,3S) = CC[C@H](C)[C@@H](O)C(=O)O; NMeVal(β-OH) = CN[C@H](C(=O)O)C(C)(C)O; NMeV = CN[C@H](C(=O)O)C(C)C
Answer by giving the amount and then stating its unit.

Examples with answers:
molecule="CC[C@H](C)[C@@H]1NC(=O)[C@@H]2CCCN2C(=O)[C@H](Cc2cccc(-c3cnc4ccccc4c3)c2)N(C)C(=O)[C@H](Cc2ccccc2)NC(=O)[C@H](C(C)C)N(C)C(=O)[C@@H]([C@@H](C)CC)OC(=O)[C@H](C(C)(C)O)N(C)C(=O)[C@H](CC(C)C)NC(=O)[C@H](C(C)C)N(C)C1=O [Compound 27] (cyclo(F[X17]PI[NMeV]L[NMeVal(β-OH)][Hmp(2R,3S)][NMeV]))" recorded_value="0.015 µg/mL"
molecule="CC[C@H](C)[C@@H]1NC(=O)[C@@H]2CCCN2C(=O)[C@H](Cc2cccc(-c3cncc4ccccc34)c2)N(C)C(=O)[C@H](Cc2ccccc2)NC(=O)[C@H](C(C)C)N(C)C(=O)[C@@H]([C@@H](C)CC)OC(=O)[C@H](C(C)(C)O)N(C)C(=O)[C@H](CC(C)C)NC(=O)[C@H](C(C)C)N(C)C1=O [Compound 29] (cyclo(F[X22]PI[NMeV]L[NMeVal(β-OH)][Hmp(2R,3S)][NMeV]))" recorded_value="0.008 µg/mL"

Recorded MIC (molecule CC[C@H](C)[C@@H]1NC(=O)[C@@H]2CCCN2C(=O)[C@H](Cc2cccc(-c3cccc(F)c3)c2)N(C)C(=O)[C@H](Cc2ccccc2)NC(=O)[C@H](C(C)C)N(C)C(=O)[C@@H]([C@@H](C)CC)OC(=O)[C@H](C(C)(C)O)N(C)C(=O)[C@H](CC(C)C)NC(=O)[C@H](C(C)C)N(C)C1=O [Compound 7] (cyclo(F[X32]PI[NMeV]L[NMeVal(β-OH)][Hmp(2R,3S)][NMeV])) ): 0.015 µg/mL

###

Kindly supply the reported minimal effective concentration values for the records listed here.
System: A. fumigatus MMX 5280 ATCC MYA-3626
assay-overview: MIC/MEC assay (CLSI microdilution)
Assay type: cell-based, Aspergillus fumigatus
experimental-setup: Aspergillus fumigatus, 48 h, Without Tween-80, read-out: MEC
Numbered stars: 1 amine (or outer) side, 2 acyl side, 3 side chain; on linkers, the order of the positions; unused ones are H or OH. Square brackets hold non-standard residues; d marks the D form. Peptide text beside a SMILES is read from it. X1 = CC(C)N1CCN(c2ccc(-c3cccc(C[C@@H](C(=O)[*:2])N(C)[*:1])c3)cc2)CC1; X16 = CC(C)c1cc(-c2cccc(C[C@@H](C(=O)[*:2])N(C)[*:1])c2)ccn1; Hmp(2R,3S) = CC[C@H](C)[C@@H](O)C(=O)O; NMeVal(β-OH) = CN[C@H](C(=O)O)C(C)(C)O; NMeV = CN[C@H](C(=O)O)C(C)C
One number for each entry, in µg/mL.

compound="CC[C@H](C)[C@@H]1NC(=O)[C@@H]2CCCN2C(=O)[C@H](Cc2cccc(-c3ccnc(C(C)C)c3)c2)N(C)C(=O)[C@H](Cc2ccccc2)NC(=O)[C@H](C(C)C)N(C)C(=O)[C@@H]([C@@H](C)CC)OC(=O)[C@H](C(C)(C)O)N(C)C(=O)[C@H](CC(C)C)NC(=O)[C@H](C(C)C)N(C)C1=O [Compound 16] (cyclo(F[X16]PI[NMeV]L[NMeVal(β-OH)][Hmp(2R,3S)][NMeV]))" test_target="A. fumigatus MMX 5280 ATCC MYA-3626" measurement_kind="minimal effective concentration" units=µg/mL recorded_value=2

What the record says about CC[C@H](C)[C@@H]1NC(=O)[C@@H]2CCCN2C(=O)[C@H](Cc2cccc(-c3ccc(N4CCN(C(C)C)CC4)cc3)c2)N(C)C(=O)[C@H](Cc2ccccc2)NC(=O)[C@H](C(C)C)N(C)C(=O)[C@@H]([C@@H](C)CC)OC(=O)[C@H](C(C)(C)O)N(C)C(=O)[C@H](CC(C)C)NC(=O)[C@H](C(C)C)N(C)C1=O [Compound 25] (cyclo(F[X1]PI[NMeV]L[NMeVal(β-OH)][Hmp(2R,3S)][NMeV])) : minimal effective concentration is 0.5

###

Would you mind telling me the reported MIC of each entry?
Tested on: C. neoformans MMX 0634 ATCC 90112
assay-overview: MIC assay (CLSI microdilution)
Format: cell-based
experimental-setup: Cryptococcus neoformans, ATCC90112, RPMI plus 0.002% Tween-80; read-out: MIC
Numbered stars: 1 amine (or outer) side, 2 acyl side, 3 side chain; on linkers, the order of the positions; unused ones are H or OH. Square brackets hold non-standard residues; d marks the D form. Peptide text beside a SMILES is read from it. X2 = CN1CCN(c2ccc(-c3cccc(C[C@@H](C(=O)[*:2])N(C)[*:1])c3)cc2)CC1; X27 = CN([C@@H](Cc1cccc(-c2cccc3ccccc23)c1)C(=O)[*:2])[*:1]; X33 = CN([C@@H](Cc1cccc(-c2ccc3ccccc3c2)c1)C(=O)[*:2])[*:1]; Hmp(2R,3S) = CC[C@H](C)[C@@H](O)C(=O)O; NMeVal(β-OH) = CN[C@H](C(=O)O)C(C)(C)O; NMeV = CN[C@H](C(=O)O)C(C)C
Answers are plain numbers, in µg/mL.

Completed entries (count: 2):
compound="CC[C@H](C)[C@@H]1NC(=O)[C@@H]2CCCN2C(=O)[C@H](Cc2cccc(-c3ccc(N4CCN(C)CC4)cc3)c2)N(C)C(=O)[C@H](Cc2ccccc2)NC(=O)[C@H](C(C)C)N(C)C(=O)[C@@H]([C@@H](C)CC)OC(=O)[C@H](C(C)(C)O)N(C)C(=O)[C@H](CC(C)C)NC(=O)[C@H](C(C)C)N(C)C1=O [Compound 19] (cyclo(F[X2]PI[NMeV]L[NMeVal(β-OH)][Hmp(2R,3S)][NMeV]))" units=µg/mL recorded_value=0.03
compound="CC[C@H](C)[C@@H]1NC(=O)[C@@H]2CCCN2C(=O)[C@H](Cc2cccc(-c3ccc4ccccc4c3)c2)N(C)C(=O)[C@H](Cc2ccccc2)NC(=O)[C@H](C(C)C)N(C)C(=O)[C@@H]([C@@H](C)CC)OC(=O)[C@H](C(C)(C)O)N(C)C(=O)[C@H](CC(C)C)NC(=O)[C@H](C(C)C)N(C)C1=O [Compound 5] (cyclo(F[X33]PI[NMeV]L[NMeVal(β-OH)][Hmp(2R,3S)][NMeV]))" units=µg/mL recorded_value=0.12

Could you now consider this next compound?
Field MIC (entry CC[C@H](C)[C@@H]1NC(=O)[C@@H]2CCCN2C(=O)[C@H](Cc2cccc(-c3cccc4ccccc34)c2)N(C)C(=O)[C@H](Cc2ccccc2)NC(=O)[C@H](C(C)C)N(C)C(=O)[C@@H]([C@@H](C)CC)OC(=O)[C@H](C(C)(C)O)N(C)C(=O)[C@H](CC(C)C)NC(=O)[C@H](C(C)C)N(C)C1=O [Compound 9] (cyclo(F[X27]PI[NMeV]L[NMeVal(β-OH)][Hmp(2R,3S)][NMeV])) ) reads 0.12
